Recorded inhibition at 0.1 µM by entry
system_under_test: UniProt:P07333
assay_overview: KINOMEscan competition binding assay for CSF1R
Design: DNA tag for qPCR (not a peptide); host or cells: E. coli/T7 phage or HEK-293
measurement_context: @ 0.1 uM; read-out: CSF1R kinase binding activity, Range

COCCn1cc(OCC(F)(F)F)c(C(=O)Nc2ccc(Oc3ccnc4cc(OC)c(OC)cc34)cn2)n1 [Compound 10]	≥ 80%
COc1cc2nccc(Oc3ccc(NC(=O)c4nn(CCOC5CC5)cc4OCC(F)(F)F)cc3C)c2cc1OC [Compound 117]	≥ 80%
CCCn1cc(OC(C)C)c(C(=O)Nc2ccc(Oc3ccnc4cc(OC)c(OC(F)(F)F)cc34)c(F)c2)n1 [Compound 35]	< 50%

# input What measured inhibition at 0.1 µM goes with COc1cc2nccc(Oc3ccc(NC(=O)c4nn(C5CCCC5)cc4OCC(F)(F)F)c(F)c3)c2cc1OC [Compound 47] ?
# output ≥ 80%

###

system_under_test: CSF1R (Homo sapiens, UniProt P07333)
Sequence (P07333 20-972): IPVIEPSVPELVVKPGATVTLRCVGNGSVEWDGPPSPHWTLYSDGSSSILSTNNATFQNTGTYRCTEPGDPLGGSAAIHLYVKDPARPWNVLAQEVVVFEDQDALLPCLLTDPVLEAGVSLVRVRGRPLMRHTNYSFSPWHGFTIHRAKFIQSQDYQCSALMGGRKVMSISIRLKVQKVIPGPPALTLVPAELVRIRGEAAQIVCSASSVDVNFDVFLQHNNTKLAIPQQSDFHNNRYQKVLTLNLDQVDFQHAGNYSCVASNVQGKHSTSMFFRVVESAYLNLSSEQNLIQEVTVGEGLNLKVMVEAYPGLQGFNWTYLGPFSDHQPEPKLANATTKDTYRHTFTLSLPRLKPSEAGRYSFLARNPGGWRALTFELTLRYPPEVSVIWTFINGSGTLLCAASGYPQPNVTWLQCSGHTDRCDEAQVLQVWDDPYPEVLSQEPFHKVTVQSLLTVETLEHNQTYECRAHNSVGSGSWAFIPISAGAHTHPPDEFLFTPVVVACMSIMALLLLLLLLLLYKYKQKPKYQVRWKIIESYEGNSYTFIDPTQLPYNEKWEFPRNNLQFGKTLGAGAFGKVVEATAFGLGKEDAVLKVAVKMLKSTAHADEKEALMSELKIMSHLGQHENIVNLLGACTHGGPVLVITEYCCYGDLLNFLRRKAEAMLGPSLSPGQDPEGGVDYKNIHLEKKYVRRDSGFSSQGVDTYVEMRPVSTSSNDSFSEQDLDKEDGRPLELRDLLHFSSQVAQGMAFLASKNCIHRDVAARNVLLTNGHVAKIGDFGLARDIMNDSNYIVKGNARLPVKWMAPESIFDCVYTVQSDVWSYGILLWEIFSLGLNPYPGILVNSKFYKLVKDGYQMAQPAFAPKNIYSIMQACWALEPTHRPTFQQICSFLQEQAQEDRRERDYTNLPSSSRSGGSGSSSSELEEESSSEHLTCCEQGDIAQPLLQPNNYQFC
assay_overview: KINOMEscan competition binding assay for CSF1R
Set-up: DNA tag for qPCR (not a peptide); host or cells: E. coli/T7 phage or HEK-293
measurement_context: @ 0.1 uM; read-out: CSF1R kinase binding activity, Range
readout_name: inhibition at 0.1 µM

COc1cc2nccc(Oc3ccc(NC(=O)c4nn(C5CC5)cc4OCC4CCC4)nn3)c2cc1OC [Compound 149]	50 to 80%
COc1cc2nccc(Oc3ccc(NC(=O)c4nn(CC5COC5)cc4OCC(F)(F)F)cn3)c2cc1OC [Compound 134]	< 50%
COc1cc2nccc(Oc3ccc(NC(=O)c4nn(C5CCCCC5)cc4OCC(F)(F)F)nc3)c2cc1OC [Compound 69]	≥ 80%
CCCn1cc(OCC(F)(F)F)c(C(=O)Nc2ccc(Oc3ccnc4cc(OC)c(OC)cc34)cc2)n1 [Compound 38]	≥ 80%
COc1cc2nccc(Oc3ccc(NC(=O)c4nn(CC5COC5)cc4OCC(F)(F)F)cc3)c2cc1OC [Compound 101]	< 50%

# input What measured inhibition at 0.1 µM goes with COc1cc2nccc(Oc3ccc(NC(=O)c4nn(C5CCOC5)cc4OCC(F)(F)F)nc3)c2cc1OC (centres unmarked) [Compound 13] ?
# output ≥ 80%

# input Next record, please: COc1cc2nccc(Oc3ccc(NC(=O)c4nn(C5CCNC5)cc4OCC(F)(F)F)nc3)c2cc1OC (centres unmarked) [Compound 70]
# output 50 to 80%

###

system_under_test: CSF1R (Homo sapiens, UniProt P07333)
assay_overview: KINOMEscan competition binding assay for CSF1R
Set-up: DNA tag for qPCR (not a peptide); host or cells: E. coli/T7 phage or HEK-293
measurement_context: @ 0.1 uM; read-out: CSF1R kinase binding activity, Range
Recorded inhibition at 0.1 µM by entry

Guide cases for inhibition at 0.1 µM, answers given:
COc1cc2nccc(Oc3ccc(NC(=O)c4nn(C5CCN(C)C5)cc4OCC(F)(F)F)nc3)c2cc1OC (stereo not shown) [Compound 91]	≥ 80%
CCCn1cc(OCCF)c(C(=O)Nc2ccc(Oc3ccnc4cc(OC)c(OC)cc34)cn2)n1 [Compound 14]	≥ 80%
COc1cc2nccc(Oc3ccc(NC(=O)c4nn(C5CCC5)cc4OCC(F)(F)F)nc3)c2cc1OC [Compound 24]	≥ 80%
CCCn1cc(OCC(F)(F)F)c(C(=O)Nc2ccc(Oc3ccnc4cc(OC)c(OC)cc34)cn2)n1 [Compound 7]	≥ 80%
COc1cc2nccc(Oc3ccc(NC(=O)c4nn(C5CCOC5)cc4OCC(F)(F)F)cc3)c2cc1OC (stereo not shown) [Compound 62]	50 to 80%

# input What measured inhibition at 0.1 µM goes with COc1cc2nccc(Oc3ccc(NC(=O)c4nn(CC(C)O)cc4OCC(F)(F)F)nc3)c2cc1OC (stereo not shown) [Compound 17] ?
# output ≥ 80%

# input Next record, please: COc1cc2nccc(Oc3ccc(NC(=O)c4nn(C5CC5)cc4OCCC(F)(F)F)nn3)c2cc1OC [Compound 173]
# output 50 to 80%

# input Next record, please: COc1cc2nccc(Oc3ccc(NC(=O)c4nn(C5CCNC5)cc4OCC(F)(F)F)cc3F)c2cc1OC (stereo not shown) [Compound 78]
# output < 50%

# input Next record, please: COc1cc2nccc(Oc3ccc(NC(=O)c4nn(CC(C)O)cc4OCC(F)(F)F)cc3C)c2cc1OC (stereo not shown) [Compound 83]
# output ≥ 80%

# input Next record, please: CNCCn1cc(OCC(F)(F)F)c(C(=O)Nc2ccc(Oc3ccnc4cc(OC)c(OC)cc34)cc2F)n1 [Compound 154]
# output < 50%

# input Next record, please: COc1cc2nccc(Oc3ccc(NC(=O)c4nn(CCOC5CC5)cc4OCC(F)(F)F)cc3)c2cc1OC [Compound 118]
# output ≥ 80%

Source listed as patent US12162858B2.
